biological target: ALK kinase domain mutants; assay: In vitro kinase assay, summary over ALK kinase domain mutants; conditions: including ALK^G1269A, read-out: inhibitor level for 50% reduction in activity, all kinase domain mutations tested
endpoint: IC50

Record summary for `C[C@H]1Oc2cc(cnc2N)-c2c(nn(C)c2C#N)CN(C)C(=O)c2ccc(F)cc21` : reported IC50 = < 6.5 nM
